Data origin: paper PMC3976273

Each item that follows carries a reported pKd.
Molecular target: McinOBP1-wt (Macrocentrus cingulum, UniProt X2D9T4)
Sequence (X2D9T4 entry or part of it): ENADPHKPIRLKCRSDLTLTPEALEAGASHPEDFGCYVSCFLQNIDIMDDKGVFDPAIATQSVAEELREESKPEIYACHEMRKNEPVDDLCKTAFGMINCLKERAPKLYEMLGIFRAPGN
Test: Competitive fluorescence binding assay, displacement of 1-NPN
Conditions: McinOBP1-wt; pH 7.4; calculated from IC50 and K1-NPN; read-out: KD (calculated dissociation constant)
Procedure: Fluorescence binding assays were recorded on Shimadzu fluorescence spectrophotometer (Shimadzu, Japan) with a 1 cm light path quartz cuvette; both excitation and emission silts widths were 5 nm. The probe was excited at 337 nm and emission spectra were recorded between 350 and 500 nm. […] For determining the bound ligand from the intensity values of fluorescence emission assuming that the proteins were 100% active, with a stoichiometry of 1∶1 (protein:ligand) at saturation. […]
Keep in mind that pKd stands for -log10 of concentration in molar terms.

* C=C1CC/C=C(\C)CC[C@@H]2[C@@H]1CC2(C)C [Trans-Caryophelle, β- Caryophelle] | 5.19
* C=CC(=C)CC/C=C(\C)CCC=C(C)C | 4.61
* C=C(C)[C@H]1CC=C(C)CC1 | 4.74
* CCCCC/C=C/C=O [Trans-2-Octenal] | 4.87
* CCCCCCC=O | 4.51
* CC/C=C\CCOC(C)=O [cis-3-hexenyl acetate] | 4.99
* CC/C=C/CCOC(C)=O [Trans-3-Hexen-1-ol-Acetate] | 4.68
* CCCCCc1ccco1 | 4.78

Attention now turns to another entry.
Qu. Item CCCCCCCCC=O with McinOBP1-wt (Macrocentrus cingulum, UniProt X2D9T4) - pKd?
Ans. 4.77
